- experimentalSystem: α9α10 nAChR (Rattus norvegicus, UniProt P43144+Q9JLB5)
- Sequence (P43144 26-479 limits assumed): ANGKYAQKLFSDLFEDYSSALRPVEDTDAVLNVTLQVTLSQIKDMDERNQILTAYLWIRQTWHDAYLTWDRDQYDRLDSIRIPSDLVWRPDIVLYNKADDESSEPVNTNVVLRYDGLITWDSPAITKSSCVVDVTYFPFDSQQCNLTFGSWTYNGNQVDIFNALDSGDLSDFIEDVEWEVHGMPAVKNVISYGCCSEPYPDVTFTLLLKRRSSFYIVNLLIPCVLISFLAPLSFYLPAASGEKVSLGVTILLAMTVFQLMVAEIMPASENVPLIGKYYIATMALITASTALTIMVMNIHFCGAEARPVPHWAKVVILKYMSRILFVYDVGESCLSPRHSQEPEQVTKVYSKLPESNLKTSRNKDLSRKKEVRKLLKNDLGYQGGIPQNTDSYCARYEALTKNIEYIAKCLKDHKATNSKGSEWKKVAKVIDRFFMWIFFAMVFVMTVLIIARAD
- Sequence (Q9JLB5 25-447 limits assumed): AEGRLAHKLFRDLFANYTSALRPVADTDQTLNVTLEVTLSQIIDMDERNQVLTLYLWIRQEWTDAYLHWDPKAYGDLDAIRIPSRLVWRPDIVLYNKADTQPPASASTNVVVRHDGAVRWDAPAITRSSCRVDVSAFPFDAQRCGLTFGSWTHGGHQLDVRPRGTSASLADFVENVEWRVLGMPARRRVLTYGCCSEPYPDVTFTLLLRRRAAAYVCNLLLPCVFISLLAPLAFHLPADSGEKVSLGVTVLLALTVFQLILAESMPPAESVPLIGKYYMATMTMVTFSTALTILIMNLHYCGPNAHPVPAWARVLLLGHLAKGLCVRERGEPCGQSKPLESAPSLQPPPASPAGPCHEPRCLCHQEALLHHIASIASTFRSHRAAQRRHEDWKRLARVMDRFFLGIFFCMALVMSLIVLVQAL
- assayRemarks: cell-based
Positions of bridges follow the written chain, without caps; N, C: chain ends. Residues, ends and D or L forms follow the SMILES beside them.
propertyLabel: pIC50
Notebook: values listed as pIC50 are -log10 of the concentration (mol/L).

Guide cases for pIC50, answers given:
[
  {
    "molecule": "N=C(N)NCCC[C@H](NC(=O)[C@@H]1CSSC[C@@H]2NC(=O)[C@@H](NC(=O)CN)CSSC[C@H](NC(=O)[C@H](CCCNC(=N)N)NC(=O)[C@@H]3CCCN3C(=O)[C@H](CC(=O)O)NC(=O)[C@H](CO)NC2=O)C(=O)N[C@@H](CCCNC(=N)N)C(=O)N[C@@H](Cc2ccccc2)C(=O)N[C@@H](CCCNC(=N)N)C(=O)N1)C(=O)O [SEQ ID NO:17] (H-GCCSDPRCRFRCR-OH; disulfide 2-8, 3-12)",
    "recordedMeasurement": 8.10
  },
  {
    "molecule": "N=C(N)NCCC[C@@H]1NC(=O)[C@H](Cc2ccc(O)cc2)NC(=O)[C@H](CCCNC(=N)N)NC(=O)[C@@H]2CSSC[C@H](NC(=O)CN)C(=O)N[C@@H](CSSC[C@@H](C(N)=O)NC1=O)C(=O)N[C@@H](CO)C(=O)N[C@@H](CC(=O)O)C(=O)N1CCC[C@H]1C(=O)N[C@@H](CCCNC(=N)N)C(=O)N2 [SEQ ID NO:21] (H-GCCSDPRCRYRC-NH2; disulfide 2-8, 3-12)",
    "recordedMeasurement": 8.11
  }
]

# ---- query molecule ----
Exercise: Look up pIC50: C[C@@H]1NC(=O)[C@@H]2CSSC[C@@H](C(=O)N[C@@H](CCCNC(=N)N)C(=O)O)NC(=O)[C@H](CCCNC(=N)N)NC(=O)[C@H](Cc3ccc(O)cc3)NC(=O)[C@H](CCCNC(=N)N)NC(=O)[C@H](CSSC[C@H](NC(=O)CN)C(=O)N2)NC(=O)[C@H](CCCNC(=N)N)NC(=O)[C@@H]2CCCN2C(=O)[C@H](CC(=O)O)NC1=O [SEQ ID NO:20] (H-GCCADPRCRYRCR-OH; disulfide 2-8, 3-12)
Solution: 7.84
